experiment: ATP-based viability of Huh7 replicon cells – cell-based, CellTiter-Glo luminescence, basal, 48 h, cytotoxicity control for HCV replication inhibitor project, primary screen (AID 1143); details: higher = more signal, called active from +8 up or from −8 down;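 also: Huh7 hepatoma cells carrying a hepatitis C replication reporter with no stimulus; test concentration not given here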
REPORTED ENDPOINT: z-score
One number for each entry.

Known z-score results, listed for orientation:
CC(C)CN1C(=O)[C@@]2(c3ccc([N+](=O)[O-])cc3)CC(=O)N(C3CCCCC3)[C@@H]2c2ccc(CO)cc21 ... -0.159
CC1CC/C=C\[C@H]2OC34C=CCN(c5ccc6ccccc6c5)C(=O)[C@H]3N(CCO)C(=O)[C@@H]4C2C(=O)O1 (stereo partly drawn) ... -0.929
CO[C@H]1O[C@H](CO)[C@@H](OC(=O)Nc2cccc(F)c2)[C@H](OC(=O)Nc2ccccc2)[C@H]1OC(=O)Nc1ccccc1 ... -4.58
CC(C)CCC[C@@H](C)[C@H]1CC[C@@]2(C)C3=C(CC[C@]12C)[C@@]1(C)CC[C@H](OC(=O)c2ccc(C(F)(F)F)nc2)C(C)(C)C1CC3 (stereo partly drawn) ... -0.878
[N-]=[N+]=Nc1ccccc1C[C@]1(C(=O)N2CCCCC2)COC(c2ccc(OCCCO)cc2)=N1 ... -4.35

Parameter requested: z-score. Apply to each item below.
1. CC(C)[Si](C#CCCCC#N)(Oc1ccccc1Br)C(C)C
2. COCCOC(=O)N1C(=O)[C@@]2(c3cc(C#CC4=CCCCC4)ccc31)[C@H](C(N)=O)[C@H]1C(=O)O[C@H](c3ccccc3)[C@H](c3ccccc3)N1[C@@H]2c1ccc(O)cc1
3. [N-]=[N+]=Nc1ccccc1[C@H]1OC(c2ccc(OCCCO)cc2)=N[C@@]1(CCS(=O)(=O)c1ccccc1)C(=O)NCc1ccccc1
4. CCCCCCc1nc(-c2ccc(-c3ccc(Cl)c(Cl)c3)o2)cc2c1[Si](C(C)C)(C(C)C)O[C@H]2c1ccccc1
5. COCCOC(=O)N1C(=O)[C@@]2(c3cc(C#CC4(O)CCCCCC4)ccc31)[C@H](C(=O)Nc1nc3ccccc3s1)[C@H]1C(=O)O[C@H](c3ccccc3)[C@H](c3ccccc3)N1[C@@H]2c1ccc(OCCO)cc1
6. CC(=O)NCCCC[C@@H]1NC(=O)[C@H]2C[C@@H](C(=O)NCCCCCNC(=O)CS)[C@@H](c3ccc(O)cc3)N2C1=O

Resp:
[-0.0761, -4.06, -2.65, -0.731, -3.02, -0.47]

---

Give measured composite z-score for each item. Keep answers brief.
target: Torsin-1A (Homo sapiens) (UniProt O14656); experiment: TOR1A wild-type binding on microarray – cell lysate, small-molecule microarray, lysate, 635/667 nm, primary screen (AID 1149); settings: COS7 hTOR1A-WT lysate, 635 nm fluorescence, higher = more signal
Sequence (O14656 whole entry, looked up): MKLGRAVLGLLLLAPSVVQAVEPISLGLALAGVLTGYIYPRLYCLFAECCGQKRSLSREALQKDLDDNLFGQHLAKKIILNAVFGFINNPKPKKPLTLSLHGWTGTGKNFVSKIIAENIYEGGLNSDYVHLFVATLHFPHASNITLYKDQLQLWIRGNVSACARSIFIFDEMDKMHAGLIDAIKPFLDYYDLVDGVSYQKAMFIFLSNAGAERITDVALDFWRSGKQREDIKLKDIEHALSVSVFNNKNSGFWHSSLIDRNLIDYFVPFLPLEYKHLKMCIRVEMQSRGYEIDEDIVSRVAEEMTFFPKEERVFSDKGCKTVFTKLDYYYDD

Known composite z-score results, listed for orientation:
COCCOC(=O)N1C(=O)[C@@]2(c3cc(C#Cc4ccc(OC)cc4)ccc31)[C@H](c1ccc(O)cc1)N1[C@H](c3ccccc3)[C@H](c3ccccc3)OC(=O)[C@H]1[C@@H]2C(=O)Nc1nc2ccccc2s1 ... 0.277
O=C1N(CCS(=O)(=O)c2ccccc2)c2ccccc2[C@@H]2OC(c3ccc(OCCCO)cc3)=N[C@]12Cc1ccccc1 ... 0.422
CN1C(=O)C2C=CC(C(O)C=Cc3ccc([N+](=O)[O-])cc3)N(Nc3ccccc3)C2C1=O (stereo not drawn) ... 0.0394
CC(c1ccccc1)C(O)C1C=CC2C(=O)N(C)C(=O)C2N1NC(=O)OC(C)(C)C (stereo not drawn) ... 0.516
CCOC(=O)C[C@H]1[C@H](OC(=O)c2cc3ccccc3oc2=O)[C@@H](NC(=O)CC(C)C)c2cc(OCCCO)ccc2N1C(=O)c1ccccc1 ... 0.272
CC(C)OC(=O)C=C1C[C@@H](c2cccc(Cl)c2)O[C@@H](c2cccc(Cl)c2)O1 ... 0.686
CCCCN1CC=CC23O[C@@H]4/C=C\CCCOC(=O)C4[C@H]2C(=O)N(CCCO)[C@@H]3C1=O (stereo partly drawn) ... -1.36

Req: # get_value(readout= composite z-score, system= Torsin-1A (Homo sapiens) (UniProt O14656)) for C=C(CCCC)/C(=C/C[C@H](OC(C)=O)c1ccc(OCCO)cc1)c1cnc2ccccc2c1
Resp: 1.27

---

test system: Sam68 (KHDRBS1); experiment: compounds binding KHDRBS1 protein – biochemical, small-molecule microarray, 635 nm fluorescence, primary screen (AID 1125); conditions: higher = more signal;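 also: score merges 667 nm channel intensity with signal to noise over triplicate slides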
REPORTED ENDPOINT: composite z-score
Numbers only.

Parameter requested: composite z-score. Apply to each item below.
1. COc1cc(OC)c(C(O)C2C=CC3C(=O)NC(=O)C3N2Nc2ccccn2)cc1Br (stereo not drawn)
2. O=C1OCCC/C=C\[C@H]2OC34C=CCN(c5ccc6ccccc6c5)C(=O)[C@H]3N(CCCCCO)C(=O)[C@@H]4C12 (stereo partly drawn)
3. [N-]=[N+]=NCc1ccccc1[C@H]1OC(c2ccc(OCCCO)cc2)=N[C@@]1(Cc1ccccc1)C(=O)N1CCCCC1
4. C=CCNC(=O)[C@H]1[C@@H]2C(=O)O[C@@H](c3ccccc3)[C@@H](c3ccccc3)N2[C@@H](c2ccc(O)cc2)[C@]12C(=O)Nc1ccc(C#CCCO)cc12
5. CN(C)CCCCCCNC(=O)[C@@H]1C[C@@H]2C(=O)N[C@@H](CCCC[N+](C)(C)C)C(=O)N2[C@@H]1c1ccc(O)cc1
6. COCC(=C=CC[C@H](O)c1cccc(OCCO)c1)CCO
7. O=C(O)[C@H](Cc1ccccc1)n1cc(-c2ccccc2)nn1
8. CN(C)C(=O)[C@]1(Cc2ccccc2)N=C(c2ccc(OCCCO)cc2)O[C@@H]1c1ccccc1N=[N+]=[N-]

Resp:
0.755
-1.63
1.29
-0.319
0.794
0.431
0.187
1.32

---

experiment: probe aLefty1 binding on compound microarray – biochemical, small-molecule microarray, 635/667 nm fluorescence, primary screen (AID 1153); conditions: higher = more signal;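 also: score merges spot fluorescence with signal-to-noise ratio from the scanned slide images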
Give measured composite z-score for each item. Keep answers brief.
One number for each entry.

Known composite z-score results, listed for orientation:
O=C(O)[C@@]1(CCS(=O)(=O)c2ccccc2)N=C(c2ccc(OCCCO)cc2)O[C@H]1c1ccccc1 ... 0.0458
CCCC1(C(=O)OC)C=C2C(=C(c3ccccc3)C(=O)C2C)CN1 (stereo not drawn) ... 0.51
CC(C)(C)OC(=O)CC[C@]1(C(=O)NCCN2CCOCC2)COC(c2ccc(OCCCO)cc2)=N1 ... 0.319

Parameter requested: composite z-score. Apply to each item below.
1. O=C(CS)NCCCCCNC(=O)[C@H]1C[C@H]2C(=O)NCC(=O)N2[C@H]1c1ccc(O)cc1
2. CCCCN1CC=CC23O[C@@H]4C=CCCOC(=O)C4[C@H]2C(=O)N(CCCCCO)[C@@H]3C1=O (stereo partly drawn)
3. Cc1c(NC(=O)/C(C#N)=C/c2cccc([N+](=O)[O-])c2)c(=O)n(-c2ccccc2)n1C
4. CO[C@H]1O[C@H](CO)[C@@H](OC(=O)Nc2ccccc2)[C@@H]2OC(=O)[C@@H](Cc3ccc4ccccc4c3)C/C=C/C[C@H](Cc3ccc4ccccc4c3)C(=O)O[C@@H]12
5. COc1cc(CO)cc(I)c1O[C@H]1C=C(C(=O)NCCO)C[C@@H](NC[C@@H]2CCCO2)[C@@H]1O

Resp:
1: -0.479; 2: -0.363; 3: -0.173; 4: 0.0167; 5: -0.0075

---

assay: changes in parasitized red cell lysis, either direction – P. falciparum Indochina, OD700, 3 h, PSAC antagonist project, primary screen (AID 1156); details: P. falciparum-infected erythrocytes, osmotic lysis, higher = more signal, called active from +8 up or from −8 down
Give measured z-score for each item. Keep answers brief.
Answers are plain numbers.

Known z-score results, listed for orientation:
C=CCC(OC(C)=O)[C@@H]1[C@@H](N(Cc2cc3ccccc3o2)C(=O)Cc2ccc(OC)cc2)c2cc(OCCCO)ccc2N1C(=O)c1ccc2ccccc2c1 (some centres undefined) ... 1.17
C#CCN1[C@H](/C=C/C2CC2)[C@H](Cc2ccccc2)OC(=O)[C@@H]1Cc1ccccc1 ... -0.491
CC1CC/C=C\[C@H]2OC34C=CCN(c5ccc6ccccc6c5)C(=O)[C@H]3N(CCO)C(=O)[C@@H]4C2C(=O)O1 (some centres undefined) ... 0.15

Req: # get_value(readout='z-score', item= COCCCNC(=O)[C@@]1(CCS(=O)(=O)c2ccccc2)N=C(c2ccc(OCCCO)cc2)O[C@H]1c1ccccc1N=[N+]=[N-] )
Resp: 1.28

---

experiment: growth of efflux-deficient E. coli DRC39 – strain DRC39, OD650, 24 h, E. coli filamentation inducers, primary screen (AID 1178);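 also: growth measured as culture turbidity by optical density at 650 nm; test concentration not given here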; conditions: E. coli DRC39 acrAB, higher = more signal, called active from +8 up or from −8 down
Class 1: z-score at least 0.3. Class -1: z-score below 0.3.

Some solved entries appear below for comparison.
[N-]=[N+]=Nc1ccccc1C[C@]1(C(=O)N2CCCCC2)COC(c2ccc(OCCCO)cc2)=N1 ... 1
CC(C)C(=C=CC[C@H](O)c1ccc(CO)o1)CCO ... -1
COc1ccc([Si](C)(C)[C@H]2[C@H](CCn3cc([C@H](O)c4ccccc4)nn3)O[C@@]3(C(=O)N(C)c4ccccc43)[C@@H]2C)cc1 ... 1

Req: Kindly determine if z-score recorded for C=CCNC(=O)[C@@H]1[C@H]2C(=O)O[C@H](c3ccccc3)[C@H](c3ccccc3)N2[C@H](c2ccc(OCCO)cc2)[C@@]12C(=O)N(C(=O)OCCOC)c1ccc(C#CCC(C(=O)OC)C(=O)OC)cc12 is above or exactly 0.3.
Resp: 1

Req: Now consider C#CCN1[C@H](/C=C/C2CC2)[C@H](Cc2ccccc2)OC(=O)[C@@H]1Cc1ccccc1 and answer again.
Resp: -1
